# Experiment Description: qHTS Screen of the MIPE 4.0 Collection Against Ewings Sarcoma (TC71) (AID 1259253); further: nearly all actives have a fitted effect of over 40% in size
# Setup Conditions: TC71 Ewing sarcoma viability, CellTiter-Glo, 48 h; series mostly up to 45.8 µM
# Procedure: There is a large unmet medical need for treatments for Ewing sarcoma, a pediatric sarcoma. […] Using the NCATS developed oncology compound library called the Mechanism of Interrogation Plate (MIPE), four Ewing sarcoma cell lines were evaluated (TC32, TC71, RDES, EW8). Compounds, in a 12-point titration series, were incubated with cells for 48 hours and the read out was cell viability (CellTiter-Glo from Promega). […]
Results filed as inconclusive are left out. Calls of active or inactive are those of the source. The call rests on the fitted dose curve; in most records, active means well fitted inhibition curve with a large enough effect; inconclusive means small, poorly fitted or top-dose-only effect; inactive means no such curve, though single readings can be large or run the other way.
Outcome (select one): true for active, false for inactive

Prompt line: Recorded test call requested for OCCn1cc(-c2cnc3nnn(Cc4ccc5ncccc5c4)c3n2)cn1
Response line: false

Prompt line: Recorded test call requested for CCN(c1ccccc1)c1cc(NC)[n+](C)c(C)n1
Response line: false

Prompt line: Recorded test call requested for COCC(=O)NCC=Cc1ccc2ncnc(Nc3ccc(Oc4ccc(C)nc4)c(C)c3)c2c1
Response line: true

Prompt line: Recorded test call requested for c1ccc(-c2nn3c(c2-c2ccnc4cc(OCCN5CCOCC5)ccc24)CCC3)nc1
Response line: true

Prompt line: Recorded test call requested for Clc1ccc(Nc2nnc(Cc3ccncc3)c3ccccc23)cc1
Response line: true

Prompt line: Recorded test call requested for OC(CN1CCC(Cc2ccc(F)cc2)CC1)c1ccc(Cl)cc1 (centres undefined)
Response line: false

Prompt line: Recorded test call requested for CC1(C)Cc2c(-c3ccccc3)c(-c3ccc(Cl)cc3)c(CC(=O)O)n2C1
Response line: true

Prompt line: Recorded test call requested for COc1cc(F)c(F)c(Nc2ccc(I)cc2F)c1NS(=O)(=O)C1(C[C@H](O)CO)CC1
Response line: true

Prompt line: Recorded test call requested for Cc1c(CCOc2ccc(C(=O)O)cc2)c2cc(Cl)ccc2n1C(c1ccccc1)c1ccccc1
Response line: true

* * *

# Experiment Description: qHTS profiling for inhibitors of Plasmodium falciparum (DD2) proliferation (AID 743323)
# Setup Conditions: lower = more inhibition; at 28.7 µM (top of the series) unless noted
Kindly supply the reported activity, percent of control values for the records listed here.
Numbers only; they are read as %.

In plain terms, CC1(C)Cc2c(-c3ccccc3)c(-c3ccc(Cl)cc3)c(CC(=O)O)n2C1 has a documented activity, percent of control of 13.4

In plain terms, C#Cc1cccc(Nc2ncnc3cc(OCCOC)c(OCCOC)cc23)c1 has a documented activity, percent of control of 27.9

In plain terms, CCCc1nc2c(C)cc(-c3nc4ccccc4n3C)cc2n1Cc1ccc(-c2ccccc2C(=O)O)cc1 has a documented activity, percent of control of 94

In plain terms, O=c1ncn2nc(Sc3ccc(F)cc3F)ccc2c1-c1c(Cl)cccc1Cl has a documented activity, percent of control of 80.3

In plain terms, COc1cc2c(cc1OC)CN(CCc1ccc(NC(=O)c3cccc4c(=O)c5cccc(OC)c5[nH]c34)cc1)CC2 has a documented activity, percent of control of 0.466

In plain terms, C[C@@H]1C[C@H]2[C@@H]3CCC4=CC(=O)C=C[C@]4(C)C3(F)[C@@H](O)C[C@]2(C)[C@@]1(O)C(=O)CO (stereo partly drawn) has a documented activity, percent of control of 95.7

In plain terms, CN[C@@H](C)C(=O)N[C@H]1CCCC[C@H]2CC[C@@H](C(=O)N[C@@H](c3ccccc3)c3cn(CCCCc4ccc(CCCCn5cc([C@@H](NC(=O)[C@@H]6CC[C@@H]7CCCC[C@H](NC(=O)[C@H](C)NC)C(=O)N76)c6ccccc6)nn5)cc4)nn3)N2C1=O has a documented activity, percent of control of 0.253

In plain terms, CS(=O)(=O)c1ccc(C(=O)Nc2ccc(Cl)c(-c3ccccn3)c2)c(Cl)c1 has a documented activity, percent of control of 101

In plain terms, COCCNCCCn1c(C(=O)CF)c(-c2ccc(C)cc2)c2c(N)ncnc21 has a documented activity, percent of control of 77.9

In plain terms, COc1ccc(-c2ccc3c(N4CCOC[C@H]4C)nc(N4CCOC[C@H]4C)nc3n2)cc1CO has a documented activity, percent of control of 19.8

In plain terms, Cc1cccc(-c2nn(C(=S)Nc3ccccc3)cc2-c2ccnc3ccccc23)n1 has a documented activity, percent of control of 87.9

In plain terms, CC(=O)NC(C)c1ccc(Oc2ccc(OC(C)C)cc2)cc1 (stereo not drawn) has a documented activity, percent of control of 93.5

In plain terms, Cc1n[nH]c(C)c1Cc1sc2c(c1C(=O)N1C[C@H](O)CO1)c(=O)n(C)c(=O)n2CC(C)C has a documented activity, percent of control of 99.9

In plain terms, O=C(O)[C@@H](c1ccc(OCc2ccc3ccccc3n2)cc1)C1CCCC1 has a documented activity, percent of control of 96.9

In plain terms, Cc1cc2c(F)c(Oc3ncnn4cc(OC[C@@H](C)O)c(C)c34)ccc2[nH]1 has a documented activity, percent of control of 101
